assay: Population pharmacokinetics of darunavir (Bayesian feedback analysis); details: human, in vivo, 281 treatment-naïve patients, with cobicistat; read-out: Population pharmacokinetic-derived AUC24h, mean (SD)
metric: AUC(0-t) (µg·h/mL)
Kindly provide the numeric value in µg·h/mL only, without the unit symbol.

Prompt: Specify reported AUC(0-t) for the molecule shown: CC(C)CN(C[C@@H](O)[C@H](Cc1ccccc1)NC(=O)O[C@H]1CO[C@H]2OCC[C@H]21)S(=O)(=O)c1ccc(N)cc1
Response: 101

* * *

experiment: Population pharmacokinetics of darunavir (Bayesian feedback analysis); settings: human, in vivo, 17 treatment-experienced patients, with cobicistat; read-out: Population pharmacokinetic-derived C0h, mean (SD)
metric: concentration at 0 h (ng/mL)
Kindly provide the numeric value in ng/mL only, without the unit symbol.

Prompt: Specify reported concentration at 0 h for the molecule shown: CC(C)CN(C[C@@H](O)[C@H](Cc1ccccc1)NC(=O)O[C@H]1CO[C@H]2OCC[C@H]21)S(=O)(=O)c1ccc(N)cc1 [Darunavir, darunavir]
Response: 2920
